Tgt: UniProt P05089
Sequence (P05089 whole entry): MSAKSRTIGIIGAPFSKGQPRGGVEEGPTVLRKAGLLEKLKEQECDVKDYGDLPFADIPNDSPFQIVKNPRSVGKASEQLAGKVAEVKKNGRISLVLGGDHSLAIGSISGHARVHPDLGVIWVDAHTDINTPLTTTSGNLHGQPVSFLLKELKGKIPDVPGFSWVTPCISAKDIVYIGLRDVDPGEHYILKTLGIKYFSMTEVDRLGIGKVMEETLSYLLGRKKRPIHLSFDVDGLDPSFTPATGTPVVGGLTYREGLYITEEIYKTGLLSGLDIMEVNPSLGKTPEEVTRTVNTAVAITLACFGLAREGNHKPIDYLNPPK
Assay: Arginase Thioornithine Generating Assay (TOGA)
Test parameters: recombinant arginase 1.88 nM, thioarginine substrate, fluorescence readout
Reported pIC50 values follow for various molecules
Value format note: pIC50 is -log10 of concentration (mol/L); just state the number.

- Chemical smiles: "C[C@]1(CCCB(O)O)[C@@H](C(=O)O)N[C@@H]2CC[C@@H]21"
  pIC50: 7.18
- Chemical smiles: "C[C@]1(CCCB(O)O)[C@@H](C(=O)O)N[C@H]2C[C@H]21"
  pIC50: 5.24
- Chemical smiles: "O=C(O)[C@H]1NC[C@@H]2NC[C@@]21CCCB(O)O"
  pIC50: 6.98

In: State measured pIC50 of the molecule "O=C(O)[C@H]1NC[C@@H]2NCC[C@@]21CCCB(O)O" with UniProt P05089.
Out: 8.79
